- MEASURED TARGET: human TLR7 (Homo sapiens, UniProt Q9NYK1)
- Construct: host or cells: HEK-Blue cells
- Sequence (Q9NYK1 27-1049): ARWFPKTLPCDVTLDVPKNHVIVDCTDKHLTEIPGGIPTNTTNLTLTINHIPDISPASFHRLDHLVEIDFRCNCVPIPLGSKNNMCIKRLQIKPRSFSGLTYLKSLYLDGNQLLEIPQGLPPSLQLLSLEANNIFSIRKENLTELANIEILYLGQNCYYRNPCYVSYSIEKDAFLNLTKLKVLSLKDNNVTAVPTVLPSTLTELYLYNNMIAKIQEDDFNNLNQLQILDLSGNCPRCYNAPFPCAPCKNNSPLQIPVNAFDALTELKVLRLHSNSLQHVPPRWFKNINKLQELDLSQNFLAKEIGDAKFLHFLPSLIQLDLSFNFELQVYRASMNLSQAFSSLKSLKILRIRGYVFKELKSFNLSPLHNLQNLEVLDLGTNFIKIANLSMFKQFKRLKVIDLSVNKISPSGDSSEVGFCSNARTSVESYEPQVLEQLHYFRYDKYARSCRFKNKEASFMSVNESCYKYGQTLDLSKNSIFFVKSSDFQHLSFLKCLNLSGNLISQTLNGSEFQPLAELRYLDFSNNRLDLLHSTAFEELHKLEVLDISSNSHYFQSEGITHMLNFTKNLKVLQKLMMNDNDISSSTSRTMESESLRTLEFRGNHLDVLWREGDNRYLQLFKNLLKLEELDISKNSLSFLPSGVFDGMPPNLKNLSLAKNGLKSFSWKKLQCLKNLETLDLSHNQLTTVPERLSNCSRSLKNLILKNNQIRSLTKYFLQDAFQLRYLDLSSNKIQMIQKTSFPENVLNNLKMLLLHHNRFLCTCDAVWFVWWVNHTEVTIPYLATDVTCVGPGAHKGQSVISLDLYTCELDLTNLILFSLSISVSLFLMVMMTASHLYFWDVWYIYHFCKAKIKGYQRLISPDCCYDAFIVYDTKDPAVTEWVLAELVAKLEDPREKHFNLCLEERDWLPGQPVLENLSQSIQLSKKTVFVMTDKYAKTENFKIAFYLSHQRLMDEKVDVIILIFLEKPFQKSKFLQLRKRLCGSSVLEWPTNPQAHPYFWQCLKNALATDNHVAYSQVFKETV
- TEST PROTOCOL: TLR7 inhibition reporter assay (HEK-Blue cells, SEAP reporter, gardiquimod stimulation)
- Assay type: cell-based
- CONDITIONS: HEK-Blue cells overexpressing human TLR7, SEAP reporter, gardiquimod 7.5 μM; read-out: TLR7 IC50
Consider the cut-off 6 nM. If the recorded IC50 is strictly smaller, the label is satisfied; if not, the label is not satisfied.

// query Strictly below 6 nM: is that where IC50 of COc1cc(-c2[nH]c3sc(C4CCC(N5CC[C@@H](NC(C)=O)C5)CC4)nc3c2C(C)C)cn2ncnc12 (single isomer, unassigned) [Example 100] sits?
// result not satisfied

// query Strictly below 6 nM: is that where IC50 of Cc1cc(-c2[nH]c3sc(C4CCC(NCC5(CO)CC5)CC4)nc3c2C(C)C)cn2ncnc12 (single isomer, unassigned) [Example 143] sits?
// result satisfied

// query Strictly below 6 nM: is that where IC50 of Cc1c(-c2[nH]c3sc(N4CCC(NC5CCC5)CC4)nc3c2C(C)C)cn2ncnc2c1C [Example 293] sits?
// result satisfied

// query Strictly below 6 nM: is that where IC50 of CCN1C[C@H](C)N(c2nc3c(C(C)C)c(-c4cn5ncnc5c(C)c4C)[nH]c3s2)C[C@H]1C [Example 331] sits?
// result satisfied

// query Strictly below 6 nM: is that where IC50 of Cc1cc2ncnn2cc1-c1[nH]c2sc(C3CCC(NC4COC4)CC3)nc2c1C(C)C (single isomer, unassigned) [Example 152] sits?
// result not satisfied

Reference source: patent US20230139171A1
